Target: αvβ1 (Homo sapiens, UniProt P05556+P06756)
Sequence (P05556 21-728 limits assumed, one chain of several): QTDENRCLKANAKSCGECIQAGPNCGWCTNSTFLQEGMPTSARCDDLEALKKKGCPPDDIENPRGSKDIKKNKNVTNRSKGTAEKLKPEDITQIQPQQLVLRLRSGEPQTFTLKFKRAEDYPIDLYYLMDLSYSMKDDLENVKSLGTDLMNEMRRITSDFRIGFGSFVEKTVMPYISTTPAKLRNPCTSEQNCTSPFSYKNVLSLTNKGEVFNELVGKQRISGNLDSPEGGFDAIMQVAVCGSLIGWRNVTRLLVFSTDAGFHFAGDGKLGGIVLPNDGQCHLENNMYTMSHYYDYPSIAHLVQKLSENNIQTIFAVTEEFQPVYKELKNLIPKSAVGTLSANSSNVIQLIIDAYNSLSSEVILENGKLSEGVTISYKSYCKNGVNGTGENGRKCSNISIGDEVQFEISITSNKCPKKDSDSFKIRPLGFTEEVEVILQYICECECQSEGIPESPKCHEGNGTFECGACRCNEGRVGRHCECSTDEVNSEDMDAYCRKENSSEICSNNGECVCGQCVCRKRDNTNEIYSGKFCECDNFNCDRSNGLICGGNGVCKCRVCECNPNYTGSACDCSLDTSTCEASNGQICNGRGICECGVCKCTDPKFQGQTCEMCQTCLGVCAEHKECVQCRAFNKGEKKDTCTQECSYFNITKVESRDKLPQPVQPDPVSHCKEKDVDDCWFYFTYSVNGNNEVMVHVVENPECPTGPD
Test: Solid Phase Integrin αvβ1 Assay
pIC50: −log10 of the molar value.
READOUT_TYPE: pIC50

# compound C[C@@H]1CN(c2cccc([C@H](CC(=O)O)NC(=O)[C@@H]3CCCN(CCCc4ccc5c(n4)NCCC5)C3)c2)C[C@H](C)O1 [Compound 617] ; its pIC50 = > 7.00

Reported pIC50 for O=C(NC[C@H](C(=O)O)c1cncc(-c2ccccc2)c1)[C@@H]1CCCN(CCCc2ccc3c(n2)NCCC3)C1 was > 7.00

The compound listed as C[C@H]1C[C@H](C(=O)N[C@@H](CC(=O)O)c2ccccc2)CN(CCCc2ccc3c(n2)NCCC3)C1 shows pIC50 equal to 6.00 to 7.00

Form field pIC50, entry O=C(NC[C@H](C(=O)O)c1cc(F)cc(-c2ccccc2)c1)[C@@H]1CCCN(CCCc2ccc3c(n2)NCCC3)C1 : 6.00 to 7.00

Memo: O=C(NC[C@H](C(=O)O)c1ccc2c(c1)CCCC2)[C@@H]1CCCN(CCCc2ccc3c(n2)NCCC3)C1 , reported pIC50: 6.00 to 7.00

The compound listed as C[C@@H]1OCCN(c2cccc([C@H](CC(=O)O)NC(=O)[C@@H]3CCCN(CCCc4ccc5c(n4)NCCC5)C3)c2)[C@@H]1C has a reported pIC50 of > 7.00

Record C[C@@H]1OCCN(c2cccc([C@H](CC(=O)O)NC(=O)[C@@H]3CCCN(CCCc4ccc5c(n4)NCCC5)C3)c2)[C@H]1C , field pIC50: > 7.00

Looking up O=C(O)C[C@H](NC(=O)[C@@H]1CCCN(CCCc2ccc3c(n2)NCCC3)C1)c1cccc([C@H]2CCOC2)c1 , I found its pIC50 recorded as > 7.00

// sample O=C(O)CC(NC(=O)[C@@H]1CCCN(CCCc2ccc3c(n2)NCCC3)C1)c1cccc2ccccc12 (some centres unmarked) , its pIC50 was > 7.00

Recorded pIC50 (compound O=C(O)C[C@@H](NC(=O)[C@@H]1CCCN(CCCc2ccc3c(n2)NCCC3)C1)c1cccc(Oc2ccccc2)c1 ): < 6.00

For this compound ( O=C(O)C[C@H](CO[C@@H]1CCCN(CCCc2ccc3c(n2)NCCC3)C1)c1cccc(-c2ccccc2)c1 ), measured pIC50 is > 7.00

Looking up O=C(O)C[C@H](NC(=O)[C@@H]1CCCN(CCCc2ccc3c(n2)NCCC3)C1)c1cccc2c1CCC2 , I found its pIC50 recorded as > 7.00

For record C[C@H]1OCCN(c2cccc([C@H](CC(=O)O)NC(=O)[C@@H]3CCCN(CCCc4ccc5c(n4)NCCC5)C3)c2)[C@H]1C the listed pIC50 is > 7.00

O=C(NC[C@H](C(=O)O)c1ccc2c(c1)CCC2)[C@@H]1CCCN(CCCc2ccc3c(n2)NCCC3)C1 yielded pIC50 of > 7.00

====

I'd appreciate it if you could supply IC50 values for the items below.
Target: αvβ6 (Homo sapiens, UniProt P06756+P18564)
Sequence (P06756 31-992 limits assumed): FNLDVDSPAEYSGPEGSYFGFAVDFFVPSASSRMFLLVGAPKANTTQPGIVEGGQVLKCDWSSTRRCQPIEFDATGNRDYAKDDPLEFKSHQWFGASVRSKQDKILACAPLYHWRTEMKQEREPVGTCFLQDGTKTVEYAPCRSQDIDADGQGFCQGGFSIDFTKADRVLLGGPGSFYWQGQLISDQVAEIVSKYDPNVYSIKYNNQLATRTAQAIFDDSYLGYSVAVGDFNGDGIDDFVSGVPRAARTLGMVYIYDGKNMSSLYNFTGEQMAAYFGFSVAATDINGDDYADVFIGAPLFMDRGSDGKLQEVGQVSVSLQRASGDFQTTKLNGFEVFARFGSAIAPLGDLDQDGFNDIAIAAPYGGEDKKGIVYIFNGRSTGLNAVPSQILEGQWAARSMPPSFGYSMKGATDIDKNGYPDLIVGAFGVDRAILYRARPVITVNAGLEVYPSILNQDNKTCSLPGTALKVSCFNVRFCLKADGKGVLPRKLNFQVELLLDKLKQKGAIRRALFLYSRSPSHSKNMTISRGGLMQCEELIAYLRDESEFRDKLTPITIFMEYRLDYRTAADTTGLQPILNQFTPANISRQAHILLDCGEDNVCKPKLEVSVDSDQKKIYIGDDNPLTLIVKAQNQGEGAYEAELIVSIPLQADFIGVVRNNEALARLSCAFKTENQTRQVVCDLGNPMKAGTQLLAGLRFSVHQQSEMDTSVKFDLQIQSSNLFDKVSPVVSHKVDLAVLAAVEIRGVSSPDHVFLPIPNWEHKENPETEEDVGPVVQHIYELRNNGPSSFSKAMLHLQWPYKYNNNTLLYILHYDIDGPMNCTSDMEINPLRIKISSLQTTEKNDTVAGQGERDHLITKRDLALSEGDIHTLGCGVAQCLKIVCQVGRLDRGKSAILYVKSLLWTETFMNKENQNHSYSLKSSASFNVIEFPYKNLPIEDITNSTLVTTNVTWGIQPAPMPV
Sequence (P18564 22-707 limits assumed): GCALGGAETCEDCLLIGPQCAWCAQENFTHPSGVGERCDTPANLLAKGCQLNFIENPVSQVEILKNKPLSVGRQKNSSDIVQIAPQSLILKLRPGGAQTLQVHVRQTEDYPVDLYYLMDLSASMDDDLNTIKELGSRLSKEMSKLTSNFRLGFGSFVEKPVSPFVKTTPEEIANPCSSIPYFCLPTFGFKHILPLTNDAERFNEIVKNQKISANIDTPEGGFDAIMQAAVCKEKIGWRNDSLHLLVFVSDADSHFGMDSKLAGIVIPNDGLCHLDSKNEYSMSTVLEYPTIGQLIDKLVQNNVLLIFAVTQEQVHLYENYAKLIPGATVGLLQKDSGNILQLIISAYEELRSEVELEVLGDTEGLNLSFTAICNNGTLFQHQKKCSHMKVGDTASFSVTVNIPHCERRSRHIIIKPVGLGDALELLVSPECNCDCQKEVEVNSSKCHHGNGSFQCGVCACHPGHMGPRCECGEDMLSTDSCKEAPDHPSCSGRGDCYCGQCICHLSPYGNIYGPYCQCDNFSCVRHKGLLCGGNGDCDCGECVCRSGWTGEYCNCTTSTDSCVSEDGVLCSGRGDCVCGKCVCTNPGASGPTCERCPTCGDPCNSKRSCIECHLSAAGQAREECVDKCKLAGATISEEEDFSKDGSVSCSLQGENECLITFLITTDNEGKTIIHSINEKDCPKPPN
Assay: Solid Phase Integrin αvβ6 Assay

The molecule listed as O=C(NC1CCCCC1)N[C@@H](CNC(=O)[C@@H]1CCCN(CCCc2ccc3c(n2)NCCC3)C1)C(=O)O [Compound 284] shows IC50 equal to < 100 nM

Entry CN1CCN(c2cccc([C@H](CC(=O)O)NC(=O)[C@@H]3CCCN(CCCc4ccc5c(n4)NCCC5)C3)c2)CC1 [Compound 228] ; IC50 = < 100 nM

Notebook: O=C(O)C[C@H](CC[C@@H]1CCCN(CCCc2ccc3c(n2)NCCC3)C1)c1ccccc1 [Compound 298-B] , IC50 read as < 100 nM

Just so you know, measured IC50 for O=C(NC[C@H](C(=O)O)c1cccc2n[nH]cc12)[C@@H]1CCCN(CCCc2ccc3c(n2)NCCC3)C1 [Compound 318] came out at > 1000 nM

The reported IC50 of the molecule O=C(O)C[C@@H](CC[C@@H]1CCCN(CCCc2ccc3c(n2)NCCC3)C1)c1ccccc1 [Compound 298-A] was 100 to 1000 nM

Reported IC50 for O=C(O)C[C@H](OC[C@@H]1CCCN(CCCc2ccc3c(n2)NCCC3)C1)c1ccccc1 [Compound 294] was > 1000 nM

Form: molecule = C[C@H]1C[C@@H](C(=O)NC[C@@H](C(=O)O)c2ccc3ccccc3c2)CN(CCCc2ccc3c(n2)NCCC3)C1 [Compound 645] ; IC50 = > 1000 nM

====

Target: αvβ1 (Homo sapiens, UniProt P05556+P06756)
Test: Solid Phase Integrin αvβ1 Assay
Description: The compounds exemplified in this document were tested for their ability to inhibit αvβ1 and αvβ6 in below described solid phase integrin assays. Solid Phase Integrin αvβ1 Assay 96-well microtiter plates (4 HBX Immulon; Thermo Fisher Scientific, Waltham, MA) were coated with 100 μL/well of 1 μg/mL recombinant TGFb1-LAP in TBS at 4° C., overnight. […] Bound protein was detected using the substrate TMB. […]
Counter-ions that a name gives are not always drawn.
READOUT_TYPE: IC50

The compound listed as O=C(O)C[C@@H](NC(=O)[C@@H]1CCCN(CCCc2ccc3c(n2)NCCC3)C1)c1ccc(F)c(C2CC2)c1 [Compound 244-B] has a reported IC50 of < 100 nM

Value of IC50 reported for the compound O=C(NC[C@@H](C(=O)O)c1ccc2c(c1)CCC2)[C@@H]1CCCN(CCCc2ccc3c(n2)NCCC3)C1 [Compound 254-B] is < 100 nM

For this compound ( O=C(NC[C@H](C(=O)O)c1cccc(C(F)(F)F)c1)[C@@H]1CCCN(CCCc2ccc3c(n2)NCCC3)C1 [Compound 252-B] ), measured IC50 is > 1000 nM

Looking up O=C(O)C(CNC(=O)[C@@H]1CCCN(CCCc2ccc3c(n2)NCCC3)C1)c1ccc(C2CC2)cc1 (single isomer, unassigned) [Compound 259-B] , I see its IC50 listed as < 100 nM

Consider O=C(O)CC(NC(=O)[C@@H]1CCCN(CCCc2ccc3c(n2)NCCC3)C1)c1cccc2c1CCO2 (stereo partly shown) [Compound 219, hydrochloride] . Its measured IC50 is < 100 nM

Sure, the documented IC50 for O=C(O)C[C@H](NC(=O)[C@@H]1CCCN(CCCc2ccc3c(n2)NCCC3)C1)c1cccc2c1CCCC2 [Compound 212-A] is > 1000 nM

Looking up O=C(O)C[C@@H](O[C@@H]1CCCN(CCCc2ccc3c(n2)NCCC3)C1)c1ccccc1 [Compound 351] , I found its IC50 recorded as > 1000 nM

====

Target: αvβ1 (Homo sapiens, UniProt P05556+P06756)
Test: Solid Phase Integrin αvβ1 Assay
READOUT_TYPE: IC50

Noted for O=C(NC[C@H](C(=O)O)c1ccc(-c2ccccc2)cc1)[C@@H]1CCCN(CCCc2ccc3c(n2)NCCC3)C1 [Compound 342] : its IC50 reads < 100 nM

Briefly, IC50 measured for O=C(O)[C@H](CCO[C@@H]1CCCN(CCCc2ccc3c(n2)NCCC3)C1)c1cccc(-c2ccccc2)c1 [Compound 329] : > 1000 nM

Please fill in: IC50 reported for O=C(O)[C@H](CO[C@@H]1CCCN(Cc2ccc3c(n2)NCCC3)C1)NC(=O)C12CCC(CC1)CC2 [Compound 404] = > 1000 nM

Looking up O=C(O)C[C@@H](CO[C@@H]1CCCN(CCCc2ccc3c(n2)NCCC3)C1)c1ccnc(C2CC2)c1 [Compound 514] , I found its IC50 recorded as < 100 nM

====

Kindly state IC50 for each of the entries shown.
Target: αvβ1 (Homo sapiens, UniProt P05556+P06756)
Assay: Solid Phase Integrin αvβ1 Assay
Structures can show the parent of a compound that is named as a salt.

// sample Cc1cc(C(F)(F)F)nn1-c1cccc([C@H](CO[C@@H]2CCCN(CCCc3ccc4c(n3)NCCC4)C2)CC(=O)O)c1 , its IC50 was < 100 nM

Looking up O=C(CC[C@@H](NC(=O)C12CCC(CC1)CC2)C(=O)O)N[C@H]1CCN(C(=O)CCCc2ccc3c(n2)NCCC3)C1 , I see its IC50 listed as > 1000 nM

Record O=C(NC[C@@H](Nc1cc(-c2ccccc2)ncn1)C(=O)O)[C@@H]1CCCN(CCCc2ccc3c(n2)NCCC3)C1 , field IC50: < 100 nM

The molecule listed as O=C(O)C[C@H](NC(=O)[C@@H]1CCCN(CCCc2ccc3c(n2)NCCC3)C1)c1cccc(C2CCCC2)c1 [Compound 231, hydrochloride] has a reported IC50 of < 100 nM

Please fill in: IC50 reported for O=C(O)[C@@H](CCO[C@H]1CCCN(CCCc2ccc3c(n2)NCCC3)C1)NC(=O)C12CCC(CC1)CC2 = 100 to 1000 nM

Just so you know, measured IC50 for C[C@@H]1C[C@H](C(=O)NC[C@H](C(=O)O)c2cccc(-c3ccccc3)c2)CN(CCCc2ccc3c(n2)NCCC3)C1 came out at 100 to 1000 nM

GET /value?item= O=C(O)C[C@H](NC(=O)[C@@H]1CCCN(CCCc2ccc3c(n2)NCCC3)C1)c1cnc2ccccc2c1 &field=IC50 returns 100 to 1000 nM

Note to self: IC50 recorded for Cc1cc([C@H](CO[C@@H]2CCCN(CCCc3ccc4c(n3)NCCC4)C2)CC(=O)O)cc(N2CCOC(C)(C)C2)c1 was 100 to 1000 nM

Entry O=C(CC[C@@H](C(=O)O)c1ccccc1)N[C@H]1CCN(CCCCc2ccc3c(n2)NCCC3)C1 ; IC50 = > 1000 nM

Summary for this molecule, COC(C)(C)C1Cc2c(cccc2C(CNC(=O)[C@@H]2CCCN(CCCc3ccc4c(n3)NCCC4)C2)C(=O)O)CO1 (some centres unmarked) : IC50 is < 100 nM

Lab book: IC50 of C[C@H]1C[C@H](C(=O)NC[C@H](C(=O)O)c2cccc(-c3ccccc3)c2)CN(CCCc2ccc3c(n2)NCCC3)C1 noted as < 100 nM

response.value for O=C(O)C[C@H](OC[C@@H]1CCCN(CCCc2ccc3c(n2)NCCC3)C1)c1ccccc1 (field: IC50) = > 1000 nM

Record summary for O=C(O)C[C@@H](CO[C@@H]1CCCN(CCCc2ccc3c(n2)NCCC3)C1)c1cncc(C2CC2)c1 : reported IC50 = < 100 nM

Recorded IC50 (molecule O=C(O)C[C@@H](CO[C@@H]1CCCN(CCCc2ccc3c(n2)NCCC3)C1)c1cccc(-c2ccccc2)c1 ): > 1000 nM
